target: human TRPML1 (Homo sapiens, UniProt Q9GZU1)
Sequence (Q9GZU1 whole entry L15A/L16A/L577A/L578A, form open): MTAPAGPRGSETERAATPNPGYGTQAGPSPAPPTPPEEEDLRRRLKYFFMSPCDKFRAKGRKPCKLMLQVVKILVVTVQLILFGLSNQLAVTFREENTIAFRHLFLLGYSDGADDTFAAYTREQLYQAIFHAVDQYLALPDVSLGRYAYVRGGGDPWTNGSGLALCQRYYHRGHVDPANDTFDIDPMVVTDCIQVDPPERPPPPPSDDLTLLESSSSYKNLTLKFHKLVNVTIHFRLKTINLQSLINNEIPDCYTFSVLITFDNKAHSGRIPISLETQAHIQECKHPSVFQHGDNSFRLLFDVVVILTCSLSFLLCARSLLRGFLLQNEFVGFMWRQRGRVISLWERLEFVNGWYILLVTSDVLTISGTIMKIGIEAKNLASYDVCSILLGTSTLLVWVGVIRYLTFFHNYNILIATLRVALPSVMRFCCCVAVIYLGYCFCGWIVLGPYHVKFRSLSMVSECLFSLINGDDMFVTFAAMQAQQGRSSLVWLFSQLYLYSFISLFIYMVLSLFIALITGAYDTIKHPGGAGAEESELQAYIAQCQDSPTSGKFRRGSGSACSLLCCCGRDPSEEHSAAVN
protocol-summary: Fluorescent TRPML1 assay (Fluo4-AM calcium fluorescence)
stated-conditions: HEK-293 Trex cells expressing hTRPML1, Fluo4-AM fluorescence; read-out: Human TRPML 1 EC50
observed-property: EC50

>>> df
                                   compound  observed_measurement
0  C[C@@H]1CN(c2ncnc3c2c(N2CCC2)cn3-c2cccc(F)c2)[C@@H](C)CN1C(=O)c1ccccc1 [Compound 108]              < 0.1 µM
1  Cc1ccccc1C(=O)N1C[C@H](C)N(c2ncnc3c2c(N2CCC2)cn3-c2cc(C#N)ccn2)C[C@H]1C [Compound 112]         0.1 to 0.5 µM
2  C[C@@H]1CN(c2ncnc3c2c(N2CCC2)cn3-c2cc(C#N)ccn2)CCN1C(=O)c1ccccc1 [Compound 101]              < 0.1 µM
3  C[C@@H]1CN(c2ncnc3c2c(C2CCC2)cn3-c2cccc(F)c2)[C@@H](C)CN1C(=O)c1ccccc1 [Compound 111]         0.1 to 0.5 µM
4  CC(C)c1ccccc1C(=O)N1C[C@H](C)N(c2ncnc3c2c(-c2ccccc2F)cn3-c2cc(C#N)ccn2)C[C@H]1C [Compound 120]              < 0.1 µM
5  C[C@@H]1CN(c2ncnc3c2c(-c2ccccn2)cn3-c2cc(C#N)ccn2)[C@@H](C)CN1C(=O)c1ccccc1 [Compound 118]         0.1 to 0.5 µM
6  C[C@@H]1CN(c2ncnc3c2c(-c2ccccc2F)cn3-c2cc(C#N)ccn2)[C@@H](C)CN1C(=O)c1ccccc1N(C)C [Compound 121]              < 0.1 µM

###

Listing of entries alongside the reported pEC50.
target: Human TRPML3 (Homo sapiens)
Sequence (Q8TDD5 whole entry): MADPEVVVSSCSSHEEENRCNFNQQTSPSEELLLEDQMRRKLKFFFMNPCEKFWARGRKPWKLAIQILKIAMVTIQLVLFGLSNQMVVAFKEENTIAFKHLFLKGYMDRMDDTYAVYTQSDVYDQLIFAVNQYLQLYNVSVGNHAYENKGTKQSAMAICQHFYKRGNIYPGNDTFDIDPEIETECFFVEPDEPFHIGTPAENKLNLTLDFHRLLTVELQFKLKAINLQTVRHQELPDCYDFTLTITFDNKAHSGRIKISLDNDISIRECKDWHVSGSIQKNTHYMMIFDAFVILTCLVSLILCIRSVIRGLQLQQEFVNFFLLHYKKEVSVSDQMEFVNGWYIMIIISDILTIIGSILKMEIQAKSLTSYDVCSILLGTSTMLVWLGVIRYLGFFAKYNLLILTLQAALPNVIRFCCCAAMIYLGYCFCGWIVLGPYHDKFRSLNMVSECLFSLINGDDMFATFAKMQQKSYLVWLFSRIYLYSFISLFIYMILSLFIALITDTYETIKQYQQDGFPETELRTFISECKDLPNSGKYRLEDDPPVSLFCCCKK
protocol-summary: Fluorescent TRPML3 assay (as for TRPML1)
stated-conditions: as TRPML1 assay with TRPML3 subtype; read-out: Human TRPML 3 EC50
pEC50: −log10 of the molar value.
observed-property: pEC50

>>> df
                           molecular_string  observed_measurement
0  C[C@@H]1CN(c2ncnc3c2c(C(F)(F)F)cn3-c2cccc(F)c2)[C@@H](C)CN1C(=O)c1ccccc1          5.70 to 6.30
1  CC(C)c1ccccc1C(=O)N1C[C@H](C)N(c2ncnc3c2c(-c2ccccc2F)cn3-c2cc(C#N)ccn2)C[C@H]1C                > 7.00
2  C[C@@H]1CN(c2ncnc3c2c(N2CCC2)cn3-c2cc(C#N)ccn2)CCN1C(=O)c1ccccc1                > 7.00
3  C[C@@H]1CN(c2ncnc3c2c(C(F)(F)F)cn3-c2cc(C#N)ccn2)CCN1C(=O)c1ccccc1                > 7.00
4  C[C@@H]1CN(c2ncnc3c2c(C2CCC2)cn3-c2cc(C#N)ccn2)[C@@H](C)CN1C(=O)c1ccccc1          6.30 to 7.00
5  Cc1ccccc1C(=O)N1C[C@H](C)N(c2ncnc3c2c(N2CCC2)cn3-c2cc(C#N)ccn2)C[C@H]1C          6.30 to 7.00
6  C[C@@H]1CN(c2ncnc3c2c(-c2ccccn2)cn3-c2cc(C#N)ccn2)[C@@H](C)CN1C(=O)c1ccccc1          5.70 to 6.30

###

target: human TRPML1 (Homo sapiens)
protocol-summary: Fluorescent TRPML1 assay (Fluo4-AM calcium fluorescence)
stated-conditions: HEK-293 Trex cells expressing hTRPML1, Fluo4-AM fluorescence; read-out: Human TRPML 1 EC50
observed-property: EC50

>>> df
                           molecular_string  observed_property  observed_measurement
0  C[C@@H]1CN(c2ncnc3c2c(C2CCC2)cn3-c2cc(C#N)ccn2)[C@@H](C)CN1C(=O)c1ccccc1               EC50              < 100 nM
1  C[C@@H]1CN(c2ncnc3c2c(N2CCC2)cn3-c2cc(C#N)ccn2)[C@@H](C)CN1C(=O)c1cccc(F)c1               EC50         100 to 500 nM
2  C[C@@H]1CN(c2ncnc3c2c(-c2ccccc2)cn3-c2cc(C#N)ccn2)[C@@H](C)CN1C(=O)c1ccccc1               EC50              < 100 nM
3  C[C@@H]1CN(c2ncnc3c2c(N2CCC2)cn3-c2cc(C#N)ccn2)[C@@H](C)CN1C(=O)c1ccccc1F               EC50         100 to 500 nM
